# STUDY SYSTEM: Carbonic anhydrase 12 (Homo sapiens)
# Sequence (O43570 whole entry): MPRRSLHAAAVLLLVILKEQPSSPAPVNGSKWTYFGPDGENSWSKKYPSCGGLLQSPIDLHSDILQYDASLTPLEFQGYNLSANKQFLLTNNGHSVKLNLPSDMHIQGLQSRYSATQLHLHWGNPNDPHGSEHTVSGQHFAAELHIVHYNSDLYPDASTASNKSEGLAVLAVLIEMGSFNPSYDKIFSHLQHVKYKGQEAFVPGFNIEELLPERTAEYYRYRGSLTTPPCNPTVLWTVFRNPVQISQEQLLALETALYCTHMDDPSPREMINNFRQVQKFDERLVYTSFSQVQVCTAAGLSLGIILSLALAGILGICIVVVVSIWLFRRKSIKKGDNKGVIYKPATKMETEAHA
# TEST METHOD NOTES: Inhibition of recombinant human carbonic anhydrase 12 incubated for 15 mins prior to testing measured for 10 to 100 secs by phenol red-based stopped-flow CO2 hydration assay
Assignment: determine reported pKi for the given compounds.
The meaning of pKi here: minus log10 of the concentration in molar units.

Noted for COc1ccccc1C1=NOC(CN2C(=O)c3ccccc3S2(=O)=O)C1 (centres undefined) : its pKi reads 8.03

Noted for `O=C1c2ccccc2S(=O)(=O)N1C[C@@H]1CC(c2ccccc2)=NO1` : its pKi reads 7.44

Noted for COc1ccc(C2=NOC(CN3C(=O)c4ccccc4S3(=O)=O)C2)cc1 (centres undefined) : its pKi reads 8.09

Noted for `O=C1c2ccccc2S(=O)(=O)N1C[C@H]1CC(c2ccccc2)=NO1` : its pKi reads 7.31

====

# STUDY SYSTEM: UniProtKB Q16790
# TEST METHOD NOTES: Inhibition of recombinant human carbonic anhydrase 9 incubated for 15 mins prior to testing measured for 10 to 100 secs by phenol red-based stopped-flow CO2 hydration assay
pKi: −log10 of the molar value.
Rule: 1 for pKi not less than 7, -1 for anything less.

input: Confirm if pKi reported for the molecule `O=C1c2ccccc2S(=O)(=O)N1C[C@@H]1CC(c2ccccc2)=NO1` is 7 or above.
output: 1

input: Confirm if pKi reported for the molecule COc1cccc(C2=NOC(CN3C(=O)c4ccccc4S3(=O)=O)C2)c1 (centres undefined) is 7 or above.
output: -1

input: Confirm if pKi reported for the molecule `COc1cccc(-c2cc(CN3C(=O)c4ccccc4S3(=O)=O)on2)c1` is 7 or above.
output: -1

input: Confirm if pKi reported for the molecule `COc1ccccc1-c1cc(CN2C(=O)c3ccccc3S2(=O)=O)on1` is 7 or above.
output: -1

input: Confirm if pKi reported for the molecule O=C1c2ccccc2S(=O)(=O)N1CC1CC(c2ccccn2)=NO1 (centres undefined) is 7 or above.
output: -1

input: Confirm if pKi reported for the molecule O=C1c2ccccc2S(=O)(=O)N1CC1CC(c2ccc([N+](=O)[O-])cc2)=NO1 (centres undefined) is 7 or above.
output: -1

input: Confirm if pKi reported for the molecule `O=C1c2ccccc2S(=O)(=O)N1Cc1cc(-c2ccccc2)no1` is 7 or above.
output: 1

input: Confirm if pKi reported for the molecule COc1ccccc1C1=NOC(CN2C(=O)c3ccccc3S2(=O)=O)C1 (centres undefined) is 7 or above.
output: -1

input: Confirm if pKi reported for the molecule `O=C1c2ccccc2S(=O)(=O)N1Cc1cc(-c2cccs2)no1` is 7 or above.
output: 1

input: Confirm if pKi reported for the molecule `O=C1c2ccccc2S(=O)(=O)N1C[C@H]1CC(c2cccs2)=NO1` is 7 or above.
output: 1

input: Confirm if pKi reported for the molecule `O=C1c2ccccc2S(=O)(=O)N1C[C@@H]1CC(c2cccs2)=NO1` is 7 or above.
output: 1

input: Confirm if pKi reported for the molecule `O=C1c2ccccc2S(=O)(=O)N1Cc1cc(-c2cccc([N+](=O)[O-])c2)no1` is 7 or above.
output: -1

input: Confirm if pKi reported for the molecule O=C1c2ccccc2S(=O)(=O)N1CC1CC(c2cccnc2)=NO1 (centres undefined) is 7 or above.
output: -1

input: Confirm if pKi reported for the molecule `O=C1c2ccccc2S(=O)(=O)N1Cc1cc(-c2ccccn2)no1` is 7 or above.
output: -1

input: Confirm if pKi reported for the molecule `COc1ccc(-c2cc(CN3C(=O)c4ccccc4S3(=O)=O)on2)cc1` is 7 or above.
output: 1

input: Confirm if pKi reported for the molecule `O=C1c2ccccc2S(=O)(=O)N1C[C@H]1CC(c2ccccc2)=NO1` is 7 or above.
output: 1

====

# STUDY SYSTEM: Carbonic anhydrase 9 (Homo sapiens, UniProt Q16790)
# TEST METHOD NOTES: Inhibition of recombinant human carbonic anhydrase 9 incubated for 15 mins prior to testing measured for 10 to 100 secs by phenol red-based stopped-flow CO2 hydration assay
Assignment: determine reported Ki for the given compounds.
Enter your answer as a number in nM; do not include the unit.

Kindly note: Carbonic anhydrase 9 (Homo sapiens, UniProt Q16790), O=C1c2ccccc2S(=O)(=O)N1CC1CC(c2cccc([N+](=O)[O-])c2)=NO1 (stereo not drawn) , Ki value reported: 103

Kindly note: Carbonic anhydrase 9 (Homo sapiens, UniProt Q16790), `O=C1c2ccccc2S(=O)(=O)N1Cc1cc(-c2cccnc2)no1` , Ki value reported: 86.2

Kindly note: Carbonic anhydrase 9 (Homo sapiens, UniProt Q16790), COc1ccc(C2=NOC(CN3C(=O)c4ccccc4S3(=O)=O)C2)cc1 (stereo not drawn) , Ki value reported: 139
